These data points were gathered from patent US11427548B2.

# measured_on: Androgen Receptor (Homo sapiens, UniProt P10275+P40337, T878A)
# Construct: Compounds have been evaluated in this assay in LNCaP and/or VCaP cells utilizing similar protocols; endogenous in cells; host or cells: LNCaP cells
# Sequence (P10275 whole entry T878A): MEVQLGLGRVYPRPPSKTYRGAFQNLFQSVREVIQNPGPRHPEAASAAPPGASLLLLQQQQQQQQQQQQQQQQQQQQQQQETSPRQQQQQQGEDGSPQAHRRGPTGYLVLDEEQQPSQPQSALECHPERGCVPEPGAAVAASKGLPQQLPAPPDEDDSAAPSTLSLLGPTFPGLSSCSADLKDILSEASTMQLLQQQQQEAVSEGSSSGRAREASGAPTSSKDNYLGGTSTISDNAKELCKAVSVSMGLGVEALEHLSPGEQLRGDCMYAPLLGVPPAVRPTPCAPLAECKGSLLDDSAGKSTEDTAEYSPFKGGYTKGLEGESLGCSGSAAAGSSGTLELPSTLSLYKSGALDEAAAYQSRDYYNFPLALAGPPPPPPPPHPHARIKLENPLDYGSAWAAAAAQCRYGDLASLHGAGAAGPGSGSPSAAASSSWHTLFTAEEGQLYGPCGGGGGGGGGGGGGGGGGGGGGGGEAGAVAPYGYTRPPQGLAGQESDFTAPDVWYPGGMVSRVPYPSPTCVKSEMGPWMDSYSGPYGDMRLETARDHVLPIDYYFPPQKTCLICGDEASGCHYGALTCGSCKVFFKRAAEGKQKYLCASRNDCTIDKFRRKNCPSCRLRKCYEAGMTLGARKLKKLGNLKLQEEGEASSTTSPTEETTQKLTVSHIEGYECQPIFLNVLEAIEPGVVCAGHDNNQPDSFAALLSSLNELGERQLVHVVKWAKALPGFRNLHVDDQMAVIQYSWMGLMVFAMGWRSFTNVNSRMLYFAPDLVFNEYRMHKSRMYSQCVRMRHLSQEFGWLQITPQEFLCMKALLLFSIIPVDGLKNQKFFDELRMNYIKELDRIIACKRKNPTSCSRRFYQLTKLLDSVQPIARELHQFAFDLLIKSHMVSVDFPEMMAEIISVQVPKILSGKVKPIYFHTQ
# Sequence (P40337 whole entry): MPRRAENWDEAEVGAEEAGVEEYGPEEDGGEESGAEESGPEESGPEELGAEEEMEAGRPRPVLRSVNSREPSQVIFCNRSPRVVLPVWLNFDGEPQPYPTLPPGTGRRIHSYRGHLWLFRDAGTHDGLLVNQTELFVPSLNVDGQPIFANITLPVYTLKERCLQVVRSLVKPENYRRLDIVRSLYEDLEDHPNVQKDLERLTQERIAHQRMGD
# Sequence (Q15369 whole entry partner): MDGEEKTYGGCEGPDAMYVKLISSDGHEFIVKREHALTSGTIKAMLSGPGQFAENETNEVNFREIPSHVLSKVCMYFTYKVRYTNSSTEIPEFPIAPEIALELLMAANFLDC
# Sequence (Q15370 whole entry partner): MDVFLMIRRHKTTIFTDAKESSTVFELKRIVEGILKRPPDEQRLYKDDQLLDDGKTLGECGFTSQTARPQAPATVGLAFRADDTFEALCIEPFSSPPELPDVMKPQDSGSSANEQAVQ
# experiment_notes: Androgen Receptor ELISA assay (PathScan AR ELISA) in LNCaP cells: AR degradation, Dmax and DC50
# Assay type: cell-based
# condition_context: highest percentage of Androgen Receptor degradation
Could you please report measured Dmax for the items listed next?

## Input Please report the recorded Dmax for Cc1ncsc1-c1ccc(CNC(=O)[C@@H]2C[C@@H](O)CN2C(=O)[C@@H](NC(=O)CCc2ccc(OCCCOc3ccc(N4C(=S)N(c5ccc(C#N)c(C(F)(F)F)c5)C(=O)C4(C)C)cc3)cc2)C(C)(C)C)cc1 [Example 292] .
## Output 51 to 70%

## Input Please report the recorded Dmax for Cc1ncsc1-c1ccc(CNC(=O)[C@@H]2C[C@@H](O)CN2C(=O)[C@H](C(C)C)N2Cc3ccccc3C2=O)c(OCCCOCCOc2ccc(N3C(=S)N(c4ccc(C#N)c(C(F)(F)F)c4)C(=O)C3(C)C)cc2)c1 [Example 241] .
## Output 26 to 50%

## Input Please report the recorded Dmax for Cc1ncsc1-c1ccc(CNC(=O)[C@@H]2C[C@@H](O)CN2C(=O)[C@@H](NC(=O)c2cccc(OCCCCOc3ccc(N4C(=S)N(c5ccc(C#N)c(C(F)(F)F)c5)C(=O)C4(C)C)cc3)c2)C(C)(C)C)cc1 [Example 278] .
## Output > 71%

## Input Please report the recorded Dmax for Cc1ncsc1-c1ccc(CNC(=O)[C@@H]2C[C@@H](O)CN2C(=O)[C@H](C(C)C)N2Cc3cc(CCCCCOc4ccc(N5C(=S)N(c6ccc(C#N)c(C(F)(F)F)c6)C(=O)C5(C)C)cc4)ccc3C2=O)cc1 [Example 251] .
## Output 51 to 70%

## Input Please report the recorded Dmax for Cc1ncsc1-c1ccc(CNC(=O)[C@@H]2C[C@@H](O)CN2C(=O)[C@H](C(C)C)N2Cc3ccccc3C2=O)c(OCCOCCOCCCCCOCCCCCOCCOCCOc2ccc(N3C(=S)N(c4ccc(C#N)c(C(F)(F)F)c4)C(=O)C3(C)C)cc2)c1 [Example 220] .
## Output 51 to 70%

## Input Please report the recorded Dmax for Cc1ncsc1-c1ccc(CNC(=O)[C@@H]2C[C@@H](O)CN2C(=O)[C@@H](NC(=O)CCCCCOCCCCCOc2ccc(N3C(=S)N(c4ccc(C#N)c(C(F)(F)F)c4)C(=O)C3(C)C)cc2)C(C)(C)C)cc1 [Example 249] .
## Output > 71%

## Input Please report the recorded Dmax for Cc1ncsc1-c1ccc(CNC(=O)[C@@H]2C[C@@H](O)CN2C(=O)[C@@H](NC(=O)c2ccc(C3CCN(CCCCOc4ccc(N5C(=S)N(c6ccc(C#N)c(C(F)(F)F)c6)C(=O)C5(C)C)cc4)CC3)cc2)C(C)(C)C)cc1 [Example 287] .
## Output 51 to 70%

## Input Please report the recorded Dmax for Cc1ncsc1-c1ccc(CNC(=O)[C@@H]2C[C@@H](O)CN2C(=O)[C@H](C(C)C)N2Cc3ccccc3C2=O)c(OCCCCOc2ccc(N3C(=S)N(c4ccc(C#N)c(C(F)(F)F)c4)C(=O)C3(C)C)cc2)c1 [Example 256] .
## Output 51 to 70%

## Input Please report the recorded Dmax for Cc1ncsc1-c1ccc(CNC(=O)[C@@H]2C[C@@H](O)CN2C(=O)[C@@H](NC(=O)COCCCCCOC2CCN(C(=O)c3ccc(N4C(=S)N(c5ccc(C#N)c(C(F)(F)F)c5)C(=O)C4(C)C)cc3)CC2)C(C)(C)C)cc1 [Example 294] .
## Output 26 to 50%

## Input Please report the recorded Dmax for Cc1ncsc1-c1ccc(CNC(=O)[C@@H]2C[C@@H](O)CN2C(=O)[C@@H](NC(=O)COCCCOCCOCCOc2ccc(N3C(=S)N(c4ccc(C#N)c(C(F)(F)F)c4)C(=O)C3(C)C)cc2)C(C)(C)C)cc1 [Example 253] .
## Output 51 to 70%

## Input Please report the recorded Dmax for Cc1ncsc1-c1ccc(CNC(=O)[C@@H]2C[C@H](O)CN2C(=O)[C@H](C(C)C)N2Cc3ccccc3C2=O)c(OCCOCCOCCOc2ccc(N3C(=S)N(c4ccc(C#N)c(C(F)(F)F)c4)C(=O)C3(C)C)cc2)c1 [Example 229] .
## Output 51 to 70%

## Input Please report the recorded Dmax for Cc1ncsc1-c1ccc(CNC(=O)[C@@H]2C[C@@H](O)CN2C(=O)[C@@H](NC(=O)c2ccc(OCCCOc3ccc(-c4ccc(N5C(=S)N(c6ccc(C#N)c(C(F)(F)F)c6)C(=O)C5(C)C)cc4)cc3)cc2)C(C)(C)C)cc1 [Example 284] .
## Output 26 to 50%

## Input Please report the recorded Dmax for Cc1ncsc1-c1ccc(CNC(=O)[C@@H]2C[C@@H](O)CN2C(=O)[C@H](C(C)C)N2Cc3ccccc3C2=O)c(OCCOCCOCCOCCOc2ccc(N3C(=S)N(c4ccc(C#N)c(C(F)(F)F)c4)C(=O)C3(C)C)cc2)c1 [Example 210] .
## Output 26 to 50%

## Input Please report the recorded Dmax for Cc1ncsc1-c1ccc(CNC(=O)[C@@H]2C[C@@H](O)CN2C(=O)[C@@H](NC(=O)COCCOCCCOCCOc2ccc(N3C(=S)N(c4ccc(C#N)c(C(F)(F)F)c4)C(=O)C3(C)C)cc2)C(C)(C)C)cc1 [Example 240] .
## Output 51 to 70%

## Input Please report the recorded Dmax for Cc1ncsc1-c1ccc(CNC(=O)[C@@H]2C[C@@H](O)CN2C(=O)[C@@H](NC(=O)c2ccc(OCCCOc3ccc(N4C(=S)N(c5ccc(C#N)c(C(F)(F)F)c5)C(=O)C4(C)C)cc3)cc2)C(C)(C)C)cc1 [Example 265] .
## Output < 25%

## Input Please report the recorded Dmax for Cc1ncsc1-c1ccc(CNC(=O)[C@@H]2C[C@@H](O)CN2C(=O)[C@@H](NC(=O)COCCCCCOCCCOc2ccc(N3C(=S)N(c4ccc(C#N)c(C(F)(F)F)c4)C(=O)C3(C)C)cc2)C(C)(C)C)cc1 [Example 295] .
## Output > 71%

## Input Please report the recorded Dmax for Cc1ncsc1-c1ccc(CNC(=O)[C@@H]2C[C@@H](O)CN2C(=O)[C@H](C(C)C)N2Cc3ccccc3C2=O)c(OCCCOCCOCCOc2ccc(N3C(=S)N(c4ccc(C#N)c(C(F)(F)F)c4)C(=O)C3(C)C)cc2)c1 [Example 205] .
## Output < 25%

* * *

# measured_on: Androgen Receptor (Homo sapiens)
# Construct: endogenous in cells; host or cells: VCaP cells
# experiment_notes: Androgen Receptor ELISA assay (PathScan AR ELISA) in VCaP cells: AR degradation, Dmax and DC50
# Format: cell-based
# condition_context: VCaP cells; Table 36; read-out: VCaP DC50
Could you please report measured DC50 for the items listed next?

## Input Write down the reported DC50 of Cc1ncsc1-c1ccc([C@H](C)NC(=O)[C@@H]2C[C@@H](O)CN2C(=O)[C@@H](NC(=O)CN2CCN(CCOCCN3CCN(c4ccc(C(=O)N[C@H]5C(C)(C)[C@H](Oc6ccc(C#N)c(Cl)c6)C5(C)C)cn4)CC3)CC2)C(C)(C)C)cc1 , test system: Androgen Receptor (Homo sapiens).
## Output > 501 nM

## Input Write down the reported DC50 of Cc1nccn1-c1ccc([C@H](C)NC(=O)C2C[C@@H](O)CN2C(=O)C(NC(=O)COCC2CCN(c3ccc(C(=O)N[C@H]4C(C)(C)[C@H](Oc5ccc(C#N)c(Cl)c5)C4(C)C)cn3)CC2)C(C)(C)C)cc1 (some centres unmarked) , test system: Androgen Receptor (Homo sapiens).
## Output < 50 nM

## Input Write down the reported DC50 of Cc1ncsc1-c1ccc([C@H](C)NC(=O)[C@@H]2C[C@@H](O)CN2C(=O)[C@@H](NC(=O)CN2CCN(CCCc3ccc(C(=O)N[C@H]4C(C)(C)[C@H](Oc5ccc(C#N)c(Cl)c5)C4(C)C)cc3)[C@H](CO)C2)C(C)(C)C)cc1 , test system: Androgen Receptor (Homo sapiens).
## Output < 50 nM

## Input Write down the reported DC50 of CC(C)(C)[C@H](NC(=O)COCCN1CCN(c2ccc(C(=O)N[C@H]3C(C)(C)[C@H](Oc4ccc(C#N)c(Cl)c4)C3(C)C)cn2)CC1)C(=O)N1C[C@H](O)C[C@H]1C(=O)NCc1ccc(C#N)cc1 , test system: Androgen Receptor (Homo sapiens).
## Output < 50 nM

## Input Write down the reported DC50 of Cc1ncsc1-c1ccc([C@H](C)NC(=O)[C@@H]2C[C@@H](O)CN2C(=O)[C@@H](NC(=O)CC2(CN3CCN(c4ccc(C(=O)N[C@H]5C(C)(C)[C@H](Oc6ccc(C#N)c(Cl)c6)C5(C)C)cn4)CC3)COC2)C(C)(C)C)cc1 , test system: Androgen Receptor (Homo sapiens).
## Output < 50 nM

## Input Write down the reported DC50 of Cc1ncsc1-c1ccc([C@H](C)NC(=O)[C@@H]2CC(O)CN2C(=O)[C@H](C(C)C)N2Cc3cc(OCCN4CCN(c5ccc(C(=O)N[C@H]6C(C)(C)[C@H](Oc7ccc(C#N)c(Cl)c7)C6(C)C)cn5)CC4)ccc3C2=O)cc1 (some centres unmarked) , test system: Androgen Receptor (Homo sapiens).
## Output < 50 nM

## Input Write down the reported DC50 of CC(=O)O[C@@H]1C[C@@H](C(=O)N[C@@H](C)c2ccc(-c3scnc3C)cc2)N(C(=O)[C@H](C(C)C)N2Cc3ccc(OCCN4CCN(c5ccc(C(=O)N[C@H]6C(C)(C)[C@H](Oc7ccc(C#N)c(Cl)c7)C6(C)C)cn5)CC4)cc3C2=O)C1 , test system: Androgen Receptor (Homo sapiens).
## Output > 501 nM

## Input Write down the reported DC50 of Cc1ncsc1-c1ccc([C@H](C)NC(=O)[C@@H]2C[C@@H](O)CN2C(=O)[C@@H](NC(=O)CN2CCN(CC3(Cc4ccc(C(=O)N[C@H]5C(C)(C)[C@H](Oc6ccc(C#N)c(C(F)(F)F)c6)C5(C)C)cc4)COC3)CC2)C(C)(C)C)cc1 , test system: Androgen Receptor (Homo sapiens).
## Output < 50 nM
